test system: SN12C renal; test: NCI-60 one-dose screen, 48 h (100 = growth as untreated, 0 = no growth, -100 = all killed); details: 10 µM unless noted
Compounds without any hit were thinned out: in the full panel of roughly 83,000, 20% have a hit.
resultType: growth (%)

compound=CN(C)c1ccc(-c2c(NC(C)(C)C)nc3c(OCCc4ccccc4)cccn23)cc1 testresult=12.5
compound=CC(C)NC(=O)c1cc(-c2ccc(NC(=O)Nc3ccc(N4CCOCC4)c(C(F)(F)F)c3)cc2)nc2cccnc12 testresult=69
compound=CNC(=O)c1cc(-c2ccc(NC(=O)Nc3ccc(N4CCN(C)CC4)c(C(F)(F)F)c3)cc2)nc2cccnc12 testresult=-73.4
compound=COc1cc(/C=C/C(=O)c2ccccc2)ccc1Oc1nc(NCCO)nc(N2CCOCC2)n1 testresult=97.3
compound=COc1ccc(C(=O)c2cc(C(=O)/C=C/c3c(Cl)cccc3Cl)c3cc(C)ccn23)cc1 testresult=94.2
compound="CC(O)C(NC(=O)C1CCCN1C(=O)CNC(=O)C1CC(=O)NCC(=O)NC(Cc2c[nH]c3ccccc23)C(=O)NC(Cc2ccc(O)cc2)C(=O)NCC(=O)NC(CO)C(=O)NC(CCC(N)=O)C(=O)NC(Cc2c[nH]c3ccccc23)C(=O)N1)C(=O)NCC(=O)NC(CCC(N)=O)C(=O)NC(CCCNC(=N)N)C(=O)NC(CC(=O)O)C(=O)O (configuration not stated)" testresult=101
compound="CCN1C(=S)N(c2ccccc2)C2NC(=O)N(/N=C/C=C/c3ccccc3OC)C21 (configuration not stated)" testresult=87.5
compound=CC(=NNc1ncnc2ccccc12)c1ccc(S(C)(=O)=O)cc1 testresult=97.2
compound=COc1cccc(-c2nn(-c3ccccc3)cc2-c2ccnc(N3CCN(C(=O)Nc4ccc(F)cc4)CC3)c2)c1 testresult=67.4
compound=COc1ccc(COc2ccc(/C=C3/C(=O)Nc4cc(Cl)ccc43)cc2)cc1 testresult=94.1
compound=O=C1c2c(c3c4cccnc4[nH]c3c3ccc4ccccc4c23)C(=O)N1CCO testresult=84.4
compound=COc1cccc(-c2nn(-c3ccccc3)cc2-c2ccnc(N3CCN(C(=O)c4ccccc4)CC3)c2)c1 testresult=87.6

* * *

system: MDA-MB-435 melanoma; assay: NCI-60 one-dose screen, 48 h (100 = growth as untreated, 0 = no growth, -100 = all killed); conditions: 10 µM unless noted
Compounds without any hit were thinned out: in the full panel of roughly 83,000, 20% have a hit. Active and inactive are the calls of the source. How the source made its calls: active means growth percent below 10; inactive means the rest.
resultType: growth

compound=COc1cccc(COc2ccc(/C=C3/C(=O)Nc4cc(Cl)ccc43)cc2)c1 resulttype=growth testresult="99.9% (inactive)"
compound=COc1cc(-c2nc3ccc(-c4nnc(SCC(=O)Nc5ccc(C(C)=O)cc5)o4)cc3[nH]2)cc(OC)c1OC resulttype=growth testresult="108% (inactive)"
compound="CCCC(=O)NC(c1ccc(N(CC)CC)cc1)c1cc(C)c2cccnc2c1O (stereo not given)" resulttype=growth testresult="34.8% (inactive)"
compound="C#Cc1nc(C2=C(C)C(OC(C)=O)/C(=N/OC(C)=O)C2)cs1 (stereo not given)" resulttype=growth testresult="88.9% (inactive)"
compound=COC(=O)c1ccc(NC(=S)N2CCc3ccc([N+](=O)[O-])cc3C2)cc1O resulttype=growth testresult="111% (inactive)"

* * *

# growth listing for each entry below
test system: ACHN renal; experiment: NCI-60 one-dose screen, 48 h (100 = growth as untreated, 0 = no growth, -100 = all killed); details: 10 µM unless noted
Compounds without any hit were thinned out: in the full panel of roughly 83,000, 20% have a hit. Activity calls are given as the source filed them. Rule for the calls: active = growth percent below 10; inactive = the rest.
resultType: growth

compound=[Cl][Ru].c1ccc(-c2cccc(-c3ccccn3)n2)nc1.c1ccc(-c2ccnc3c2ccc2c(-c4ccccc4)ccnc23)cc1 testresult="96.7% (inactive)"
compound=C[C@@H](Nc1c(C#N)cnc2ccc(-c3cnc(N)nc3)cc12)c1ccccc1 testresult="6.57% (active)"
compound=C=CCn1c(SCC(=O)c2ccc(Br)cc2)nnc1-c1c[nH]c2ccccc12 testresult="88.3% (inactive)"
compound="CCN1C(=S)N(CC)C2C1N=C(SC)N2/N=C/C=C/c1ccccc1[N+](=O)[O-] (stereo unspecified)" testresult="78.1% (inactive)"
compound=CCOC(=O)c1c(Nc2ccccc2)nn2c(N)c(C#N)c(-c3ccc(F)cc3)nc12 testresult="81.6% (inactive)"
compound=N[C@@H](Cc1cn(-c2ccnc3ccccc23)nn1)C(=O)O testresult="96.1% (inactive)"

* * *

tested on: SN12C renal; assay: NCI-60 one-dose screen, 48 h (100 = growth as untreated, 0 = no growth, -100 = all killed); details: 10 µM unless noted
The panel holds about 83,000 compounds, 20% with a hit somewhere; the sample as a whole holds those more often.
resultType: growth (%)

molecule="C#Cc1nc(C2=C(C)C(O)/C(=N/O)C2)cs1 (stereo not drawn)" resulttype=growth testresult=99.9
molecule=Cn1c(SCC(=O)c2cccs2)nc2ccccc2c1=O resulttype=growth testresult=91.8
molecule=CCN1CCN(/C(=N\c2sc(-c3ccccc3)nc2-c2ccccc2)c2ccccc2)CC1 resulttype=growth testresult=76.2
molecule=CCC/C=C/C=C/C(=O)N[C@@H](Cc1cc(F)cc(F)c1)C(=O)N[C@@H]1C(=O)N2CCC[C@H]2C(=O)N2CCCC[C@H]2C(=O)N[C@@H](C)C(=O)N2C[C@H](C)C[C@H]2C(=O)O[C@H]1C resulttype=growth testresult=20.3
molecule=Clc1ccc(-c2cn3cc(Cc4ccc(Cl)c(Cl)c4)sc3n2)cc1 resulttype=growth testresult=76.6
molecule=Clc1ccc2c(OCCCN3CCOCC3)c3oc4ccccc4c3nc2c1 resulttype=growth testresult=30.4
molecule=Cc1c(Nc2nnc(SCC(=O)Nc3sc4c(c3C#N)CCCC4)s2)c(=O)n(-c2ccccc2)n1C resulttype=growth testresult=106
molecule="CCN1C(=S)N(CC)C2C1N=C(SC)N2/N=C/C=C/c1ccccc1[N+](=O)[O-] (stereo not drawn)" resulttype=growth testresult=91.8

* * *

test system: 786-0 renal; test: NCI-60 one-dose screen, 48 h (100 = growth as untreated, 0 = no growth, -100 = all killed); details: 10 µM unless noted
About 83,000 compounds went through this panel and 20% of them were active in at least one assay; those are over-represented in the sample as a whole. The source made the active and inactive calls. The calls were made as follows: active = growth percent below 10; inactive = the rest.
resultType: growth

compound="CN1C(=O)N(c2ccccc2)C2N=C(N/N=C/c3ccccc3)SC21 (stereo not drawn)" resulttype=growth testresult="33.9% (inactive)"
compound=N#Cc1c(-c2ccc(F)cc2)nc2c(C#N)c(Nc3ccccc3)nn2c1N resulttype=growth testresult="86.9% (inactive)"
compound=CCOC(=O)c1c(Nc2ccccc2)nn2c(-c3ccco3)c(C#N)cnc12 resulttype=growth testresult="67.2% (inactive)"

* * *

system: SK-OV-3 ovarian; assay: NCI-60 one-dose screen, 48 h (100 = growth as untreated, 0 = no growth, -100 = all killed); settings: 10 µM unless noted
Compounds without any hit were thinned out: in the full panel of roughly 83,000, 20% have a hit.
# growth listing for each entry below
resultType: growth (%)

compound=O=C(N/N=C/c1ccc(Br)s1)c1[nH]c2ccc(Br)cc2c1-c1ccccc1 resulttype=growth unittag=% testresult=40.6
compound=O=C(Oc1ccc2ccc(=O)oc2c1)c1ccc(Cl)cc1 resulttype=growth unittag=% testresult=109
compound=COc1cc(/C=C/C(=O)c2ccc(F)cc2)ccc1Oc1nc(NCCO)nc(N2CCOCC2)n1 resulttype=growth unittag=% testresult=113
compound=O=C(N/N=C/c1ccc([N+](=O)[O-])o1)c1[nH]c2ccc(Br)cc2c1-c1ccccc1 resulttype=growth unittag=% testresult=30.4
compound=Cn1cc(-c2cc(N)n3nc(-c4cn(C)c5ccc(Cl)cc45)cc3n2)c2cc(Cl)ccc21 resulttype=growth unittag=% testresult=123
compound=Cc1cc2nc3c4cc(Cl)ccc4n(CC(=O)NCCN(C)C)c3nc2cc1C resulttype=growth unittag=% testresult=106
compound=Cc1cc2nc3c4cc(Cl)ccc4n(CC(=S)NCCN(C)C)c3nc2cc1C resulttype=growth unittag=% testresult=-16.4
compound=CC(C)(C)Nc1nc2c(OCCc3ccccc3)cccn2c1-c1ccc(O)cc1 resulttype=growth unittag=% testresult=110
compound=COc1ccc(/C=N/NC(=O)c2[nH]c3ccc(Br)cc3c2-c2ccccc2)o1 resulttype=growth unittag=% testresult=38.1
compound=Cn1ccnc1C(=O)/C=C/c1ccc(NC(=O)Nc2ccc(Cl)cc2)cc1 resulttype=growth unittag=% testresult=84.3
compound=C#Cc1nc(C2=C(C)C(=O)/C(=N/OC(C)=O)C2)cs1 resulttype=growth unittag=% testresult=104
compound=N/C(=N\c1nc2c(Br)cccc2s1)C(Br)Br resulttype=growth unittag=% testresult=53
compound="CCN1C(=S)N(CC)C2C1N=C(SC)N2/N=C/C=C/c1ccccc1[N+](=O)[O-] (stereo not drawn)" resulttype=growth unittag=% testresult=109

* * *

test system: OVCAR-8 ovarian; test: NCI-60 one-dose screen, 48 h (100 = growth as untreated, 0 = no growth, -100 = all killed); settings: 10 µM unless noted
Compounds without any hit were thinned out: in the full panel of roughly 83,000, 20% have a hit. Active and inactive are the calls of the source. Rule for the calls: active = growth percent below 10; inactive = the rest.
resultType: growth

molecule="O=C(c1ccc(O)cc1)C1[C@H](c2ccc(Cl)cc2)[C@@H](c2ccccc2)NC12C(=O)Nc1ccc(Cl)cc12 (some centres undefined)" targetofassay="OVCAR-8 ovarian" resulttype=growth testresult="47.7% (inactive)"
molecule=CCN(CC)c1ccc(C=O)c(OCc2cn(CC(=O)Nc3ccc(Cl)cc3)nn2)c1 targetofassay="OVCAR-8 ovarian" resulttype=growth testresult="75.3% (inactive)"
molecule=COc1cc(/C=C/C(=O)c2ccc(C(F)(F)F)cc2)ccc1Oc1nc(NCCO)nc(N2CCOCC2)n1 targetofassay="OVCAR-8 ovarian" resulttype=growth testresult="95.9% (inactive)"
molecule=CN1CCc2c(sc3ncnc(N/N=C/c4ccc(Cl)c(Cl)c4)c23)C1 targetofassay="OVCAR-8 ovarian" resulttype=growth testresult="31.8% (inactive)"
